Test system: Digitaria ciliaris
Assay: Test Example 3: herbicidal effect test by soil application in upland field
Format: in vivo
Details: 1 day after sowing, 120 g per 10 ares, 14 days after application
Collected weed inhibition rate values appear next to each entry.

COMPOUND: CC(C)C1C[C@]2(C)O[C@@]1(C(C)C)C[C@H]2OCc1ccccc1F (some centres unmarked) [1-133]
weed inhibition rate: ≥ 80%
//
COMPOUND: CC(C)[C@]12C[C@@H](OCc3ccccc3C(F)(F)F)[C@](C)(CC1=O)O2 [2-29]
weed inhibition rate: ≥ 80%
//
COMPOUND: CC(C)[C@]12C[C@@H](OCc3ccccc3F)[C@](C)(C[C@@H]1Cl)O2 [1-12]
weed inhibition rate: ≥ 80%
//
COMPOUND: CC(C)[C@]12C[C@@H](OCc3ccccc3F)[C@](C)(C=C1OS(=O)(=O)C(F)(F)F)O2 [3-680]
weed inhibition rate: ≥ 80%
//
COMPOUND: CC(=O)O[C@H]1C[C@]2(C)O[C@@]1(C(C)C)C[C@H]2OCc1ccccc1F [1-480]
weed inhibition rate: ≥ 80%

###

Collected inhibition at 1200 g/ha values appear next to each entry.
Tested on: Lindemia pyxidaria
Test: Test Example 2: herbicidal effect test by application during growth period of paddy rice
Assay type: in vivo
Conditions: 7 days after sowing, 120 g per 10 ares, 14 days after application, read-out: weed inhibition rate

QUERY SMILES: Cc1ccccc1CO[C@@H]1C[C@]2(C(C)C)O[C@@]1(C)CC2=O
inhibition at 1200 g/ha: ≥ 80%
//
QUERY SMILES: CC(C)[C@]12C[C@@H](OCc3cccc(F)c3)[C@](C)(CC1=O)O2
inhibition at 1200 g/ha: ≥ 80%
//
QUERY SMILES: C#CCO[C@@H]1C[C@]2(C)O[C@@]1(C(C)C)C[C@H]2OCc1ccccc1F
inhibition at 1200 g/ha: ≥ 80%
//
QUERY SMILES: CC(C)[C@]12C[C@@H](OCc3ccc(F)cc3)[C@](C)(CC1=O)O2
inhibition at 1200 g/ha: ≥ 80%
//
QUERY SMILES: CC(C)[C@]12C[C@@H](OCc3ccccc3F)[C@](C)(C[C@H]1OCC1CC1)O2
inhibition at 1200 g/ha: ≥ 80%
//
QUERY SMILES: CC(C)[C@]12C[C@@H](OCc3ccccc3F)[C@](C)(C[C@@H]1Br)O2
inhibition at 1200 g/ha: ≥ 80%
//
QUERY SMILES: CC(C)[C@]12C[C@@H](OCc3c(F)cccc3F)[C@](C)(CC1=O)O2
inhibition at 1200 g/ha: ≥ 80%
//
QUERY SMILES: COC1(OC)C[C@]2(C)O[C@@]1(C(C)C)C[C@H]2OCc1ccccc1F
inhibition at 1200 g/ha: ≥ 80%
//
QUERY SMILES: CC(C)[C@]12C[C@@H](OCc3ccccc3C#N)[C@](C)(C[C@@H]1Br)O2
inhibition at 1200 g/ha: ≥ 80%

Origin of the recorded values: patent US20260327240A1
